Could you please report measured log10 IC50 for the items listed next?
- system.name: Urease [D459Y,K653P] (Canavalia ensiformis, UniProt P07374, D459Y/K653P)
- Sequence (P07374 whole entry D459Y/K653P): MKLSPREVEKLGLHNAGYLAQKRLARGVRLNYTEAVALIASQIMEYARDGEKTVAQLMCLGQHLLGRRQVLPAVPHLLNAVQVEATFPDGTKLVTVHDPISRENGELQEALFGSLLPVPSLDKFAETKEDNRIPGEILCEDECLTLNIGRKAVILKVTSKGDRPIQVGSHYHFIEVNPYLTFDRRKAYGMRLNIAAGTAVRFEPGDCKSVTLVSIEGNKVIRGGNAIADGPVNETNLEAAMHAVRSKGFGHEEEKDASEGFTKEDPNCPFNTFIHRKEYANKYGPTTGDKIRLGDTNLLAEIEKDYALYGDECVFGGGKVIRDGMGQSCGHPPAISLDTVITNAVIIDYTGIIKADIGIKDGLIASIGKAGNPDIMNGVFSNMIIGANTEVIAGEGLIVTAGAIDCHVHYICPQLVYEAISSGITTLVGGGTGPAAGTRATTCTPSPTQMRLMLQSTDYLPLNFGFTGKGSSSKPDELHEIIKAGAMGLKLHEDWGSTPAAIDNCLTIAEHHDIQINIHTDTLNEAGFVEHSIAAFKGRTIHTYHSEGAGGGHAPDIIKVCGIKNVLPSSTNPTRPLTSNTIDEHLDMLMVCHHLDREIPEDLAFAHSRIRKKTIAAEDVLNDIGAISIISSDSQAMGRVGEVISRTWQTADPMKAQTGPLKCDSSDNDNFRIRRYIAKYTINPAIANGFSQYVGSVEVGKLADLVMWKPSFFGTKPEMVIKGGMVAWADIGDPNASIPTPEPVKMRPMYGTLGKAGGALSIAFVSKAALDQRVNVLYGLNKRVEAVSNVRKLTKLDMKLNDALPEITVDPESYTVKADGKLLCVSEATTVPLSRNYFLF
- test: Urease Inhibition Assay
- condition.description: pH 8.2
Values reflect log10 of reported IC50 (nM).

Problem: Give its log10 IC50 value. Item: CC(=NNC(=S)Nc1ccc(F)cc1)c1cc2ccccc2o1
Result: 2.25

Problem: Quick check: log10 IC50 of CC(=NNC(=S)Nc1ccccc1Br)c1cc2ccccc2o1 ?
Result: 2.75

Problem: Name the reported log10 IC50 value associated with the compound CC(=NNC(=S)Nc1cccc(Br)c1)c1cc2ccccc2o1
Result: 4.04

Problem: Can you look up the measured log10 IC50 of C=CCNC(=S)NN=C(C)c1cc2ccccc2o1 for me?
Result: 2.84

Problem: Which log10 IC50 is reported for this compound? COc1ccccc1NC(=S)NN=C(C)c1cc2ccccc2o1
Result: 4.38

Problem: Tell me the measured log10 IC50 of CC(=NNC(=S)Nc1ccccc1)c1cc2ccccc2o1 , please.
Result: 1.95

Problem: I would be grateful if you could share the reported log10 IC50 for CC(=NNC(=S)Nc1cccc(C)c1)c1cc2ccccc2o1 .
Result: 2.45

Problem: I would be grateful if you could share the reported log10 IC50 for COc1cccc(NC(=S)NN=C(C)c2cc3ccccc3o2)c1 .
Result: 2.01

Problem: Item CC(=NNC(=S)Nc1cccc([N+](=O)[O-])c1)c1cc2ccccc2o1 has what recorded log10 IC50?
Result: 1.89

Problem: Form field: reported log10 IC50 of CC(=NNC(=S)Nc1ccccc1C)c1cc2ccccc2o1
Result: 2.50

Problem: Need log10 IC50, item CC(=NNC(=S)Nc1ccccc1F)c1cc2ccccc2o1
Result: 2.51

Problem: Request the reported log10 IC50 associated with COc1ccc(NC(=S)NN=C(C)c2cc3ccccc3o2)cc1
Result: 3.42

Problem: Quick check: log10 IC50 of CC(=NNC(=S)Nc1cc(Cl)ccc1Cl)c1cc2ccccc2o1 ?
Result: 3.30

Problem: Form field: reported log10 IC50 of CC(=NNC(=S)Nc1ccc([N+](=O)[O-])cc1)c1cc2ccccc2o1
Result: 2.26

Problem: Looking for the measured log10 IC50 of CC(=NNC(=S)Nc1cccc(Cl)c1)c1cc2ccccc2o1 , can you help?
Result: 3.05

Problem: // log10 IC50 lookup, key: CC(=NNC(=S)Nc1ccc(F)cc1F)c1cc2ccccc2o1
Result: 2.59

Problem: May I ask what log10 IC50 has been recorded for CC(=NNC(=S)Nc1ccc(C)cc1)c1cc2ccccc2o1 ?
Result: 3.54

Problem: Need log10 IC50 of CC(=NNC(=S)Nc1cccc(F)c1)c1cc2ccccc2o1 , thanks.
Result: 3.06

Problem: I would be grateful if you could share the reported log10 IC50 for CC(=NNC(=S)Nc1ccc(Cl)cc1Cl)c1cc2ccccc2o1 .
Result: 2.77
